assayed target: Recombinant HIV-1 RT (HXB2) (Human immunodeficiency virus type 1 group M subtype B)
Construct: Recombinant HIV-1 RT (HXB2) was obtained as described by Jonckheere et al; made in house
method summary: inhibition of HIV-1 reverse transcriptase enzymatic activity
Format: biochemical
assay setup: IC50 Poly(A).oligo(dT), template-primer poly(A).oligo(dT)
Overview of recorded IC50 for various compounds
Form entry: value (µM) — number only.

>>> recorded_measurement("Oc1nc(S)nc2c1C(c1ccc(Cl)cc1)c1c(O)nc(S)nc1O2")
35.2
>>> recorded_measurement("Oc1nc(O)c2c(n1)Oc1nc(O)nc(O)c1C2c1ccccc1")
33.1

Next compound, IC50 to be filled in.
// query Query (compound): `O=[N+]([O-])c1ccc(C2c3c(O)nc(S)nc3Oc3nc(S)nc(O)c32)cc1` ; field requested: IC50
// result 24.6

----------
Overview of recorded CC50 at 5 days for various compounds
method summary: cytotoxicity, viability of mock-infected cells
Assay type: cell-based
assay setup: human, viability of mock-infected MT-4 cells

Reference set, count: 5
>>> recorded_measurement("Oc1nc(O)c2c(n1)Oc1nc(O)nc(O)c1C2c1ccc(I)cc1")
"> 276 µM"
>>> recorded_measurement("Oc1nc(S)nc2c1C(c1ccc(Cl)cc1)c1c(O)nc(S)nc1O2")
"137 µM"
>>> recorded_measurement("Clc1nc(Cl)c2c(n1)Oc1nc(Cl)nc(Cl)c1C2c1ccccc1")
"17.5 µM"
>>> recorded_measurement("Oc1nc(O)c2c(n1)Oc1nc(O)nc(O)c1C2c1ccc(Cl)cc1")
"> 347 µM"
>>> recorded_measurement("Cc1ccnc2c1NC(=O)c1cccnc1N2C1CC1 [nevirapine, reference compound]")
"> 97.6 µM"

// query Query (compound): `O=[N+]([O-])c1ccc(C2c3c(O)nc(S)nc3Oc3nc(S)nc(O)c32)cc1` ; field requested: CC50 at 5 days
// result 121 µM

// query Now the compound `Oc1nc(O)c2c(n1)Oc1nc(O)nc(O)c1C2c1ccccc1`
// result > 383 µM

// query Now the compound `Oc1nc(O)c2c(n1)Oc1nc(O)nc(O)c1C2c1ccc(Br)cc1`
// result > 309 µM

// query Now the compound `COc1nc(O)nc2c1C(c1ccc([N+](=O)[O-])cc1)c1c(OC)nc(O)nc1O2`
// result > 313 µM

----------
System: HIV-1 L1
method summary: inhibition of virus-induced cytopathicity in MT-4 cells, HIV-1 clinical isolate L1
Assay type: cell-based
assay setup: Human immunodeficiency virus 1, MT4, 120 h; MT-4 cells, viral cytopathic effect, 5 days post-infection; read-out: EC50 HIV-1 L1
pEC50: −log10 of the molar value.
parameter measured: pEC50

>>> recorded_measurement("Clc1nc(Cl)c2c(n1)Oc1nc(Cl)nc(Cl)c1C2c1ccccc1")
"< 4.76"
>>> recorded_measurement("Cc1ccnc2c1NC(=O)c1cccnc1N2C1CC1 [nevirapine, reference compound]")
7.22
>>> recorded_measurement("Oc1nc(O)c2c(n1)Oc1nc(O)nc(O)c1C2c1ccc(Cl)cc1")
"< 3.46"
>>> recorded_measurement("COc1nc(O)nc2c1C(c1ccc([N+](=O)[O-])cc1)c1c(OC)nc(O)nc1O2")
"< 3.50"

Next compound, pEC50 to be filled in.
// query Query (compound): `Oc1nc(O)c2c(n1)Oc1nc(O)nc(O)c1C2c1ccc(I)cc1` ; field requested: pEC50
// result < 3.56

----------
assayed target: Recombinant HIV-1 RT (HXB2) (Human immunodeficiency virus type 1 group M subtype B, UniProt P04585)
Construct: Recombinant HIV-1 RT (HXB2) was obtained as described by Jonckheere et al; made in house
method summary: inhibition of HIV-1 reverse transcriptase enzymatic activity
Assay type: biochemical
assay setup: IC50 poly(C).oligo(dG), template-primer poly(C).oligo(dG)
parameter measured: IC50 (µM)
Form entry: value (µM) — number only.

Reference set, count: 2
>>> recorded_measurement("Oc1nc(S)nc2c1C(c1ccc(Cl)cc1)c1c(O)nc(S)nc1O2")
25.8
>>> recorded_measurement("O=[N+]([O-])c1ccc(C2c3c(O)nc(S)nc3Oc3nc(S)nc(O)c32)cc1")
4.8

// query Query (compound): `Oc1nc(O)c2c(n1)Oc1nc(O)nc(O)c1C2c1ccccc1` ; field requested: IC50
// result 15.1

----------
Tested on: HIV-2 (ROD)
method summary: inhibition of virus-induced cytopathicity in MT-4 cells, HIV-2 (ROD)
Type: cell-based
assay setup: Human immunodeficiency virus 2, MT4, 120 h, read-out: EC50 HIV-2 ROD
pEC50: −log10 of the molar value.
Overview of recorded pEC50 for various compounds

Reference set, count: 3
>>> recorded_measurement("Oc1nc(S)nc2c1C(c1ccc(Cl)cc1)c1c(O)nc(S)nc1O2")
"< 3.86"
>>> recorded_measurement("O=[N+]([O-])c1ccc(C2c3c(O)nc(S)nc3Oc3nc(S)nc(O)c32)cc1")
4.52
>>> recorded_measurement("Oc1nc(O)c2c(n1)Oc1nc(O)nc(O)c1C2c1ccc(Br)cc1")
"< 3.51"

Next compound, pEC50 to be filled in.
// query Query (compound): `Oc1nc(O)c2c(n1)Oc1nc(O)nc(O)c1C2c1ccccc1` ; field requested: pEC50
// result < 3.42

----------
Tested on: HIV-1-derived vectors pseudotyped with the VSV-G envelope
method summary: microbe, parasite or virus in culture
Assay type: cell-based
assay setup: Human immunodeficiency virus 1, HEK-293T, read-out: EC50 inhibition of lentiviral transduction
parameter measured: pEC50
# reply with the number alone; pEC50 is -log10 of concentration in mol/L

// query Query (molecule): Cc1cn([C@H]2C[C@H](N=[N+]=[N-])[C@@H](CO)O2)c(=O)[nH]c1=O [AZT, reference compound] ; field requested: pEC50
// result 7.31

----------
assayed target: recombinant His-tagged HIV-1 integrase (Human immunodeficiency virus type 1 group M subtype B)
method summary: HIV-1 integrase strand transfer assay, oligonucleotide-based
Overview of recorded IC50 for various compounds
Form entry: value (µM) — number only.

Reference set, count: 2
>>> recorded_measurement("Oc1nc(S)nc2c1C(c1ccc(Cl)cc1)c1c(O)nc(S)nc1O2 [G]")
201
>>> recorded_measurement("O=[N+]([O-])c1ccc(C2c3c(O)nc(S)nc3Oc3nc(S)nc(O)c32)cc1 [compound H]")
16.1

// query Query (compound): Oc1nc(O)c2c(n1)Oc1nc(O)nc(O)c1C2c1ccccc1 [C] ; field requested: IC50
// result 782

----------
assayed target: recombinant His-tagged HIV-1 integrase (Human immunodeficiency virus type 1 group M subtype B)
method summary: HIV-1 integrase overall integration assay, oligonucleotide-based
Overview of recorded IC50 for various molecules
Form entry: value (µM) — number only.

>>> recorded_measurement("Clc1nc(Cl)c2c(n1)Oc1nc(Cl)nc(Cl)c1C2c1ccccc1")
25
>>> recorded_measurement("O=[N+]([O-])c1ccc(C2c3c(O)nc(S)nc3Oc3nc(S)nc(O)c32)cc1")
0.3
>>> recorded_measurement("Oc1nc(O)c2c(n1)Oc1nc(O)nc(O)c1C2c1ccccc1")
34.6
>>> recorded_measurement("Oc1nc(S)nc2c1C(c1ccc(Cl)cc1)c1c(O)nc(S)nc1O2")
1
>>> recorded_measurement("Oc1nc(O)c2c(n1)Oc1nc(O)nc(O)c1C2c1ccc(Br)cc1")
298

Next molecule, IC50 to be filled in.
// query Query (molecule): `Oc1nc(O)c2c(n1)Oc1nc(O)nc(O)c1C2c1ccc(Cl)cc1` ; field requested: IC50
// result 97.1

----------
Overview of recorded pEC50 for various molecules
System: HIV-2 (ROD)
method summary: inhibition of virus-induced cytopathicity in MT-4 cells, HIV-2 (ROD)
Format: cell-based
assay setup: Human immunodeficiency virus 2, MT4, 120 h; MT-4 cells, viral cytopathic effect, 5 days post-infection; read-out: EC50 HIV-2 ROD
pEC50: −log10 of the molar value.

Reference set, count: 4
>>> recorded_measurement("Cc1ccnc2c1NC(=O)c1cccnc1N2C1CC1 [nevirapine, reference compound]")
"< 4.01"
>>> recorded_measurement("Oc1nc(O)c2c(n1)Oc1nc(O)nc(O)c1C2c1ccc(Cl)cc1")
"< 3.46"
>>> recorded_measurement("Clc1nc(Cl)c2c(n1)Oc1nc(Cl)nc(Cl)c1C2c1ccccc1")
"< 4.76"
>>> recorded_measurement("Oc1nc(O)c2c(n1)Oc1nc(O)nc(O)c1C2c1ccc(I)cc1")
"< 3.56"

Next molecule, pEC50 to be filled in.
// query Query (molecule): `COc1nc(O)nc2c1C(c1ccc([N+](=O)[O-])cc1)c1c(OC)nc(O)nc1O2` ; field requested: pEC50
// result < 3.50

----------
Overview of recorded pIC50 for various compounds
assayed target: recombinant His-tagged HIV-1 integrase (Human immunodeficiency virus type 1 group M subtype B, UniProt P04585)
method summary: HIV-1 integrase 3′-processing assay, oligonucleotide-based
# reply with the number alone; pIC50 is -log10 of concentration in mol/L

Reference set, count: 3
>>> recorded_measurement("Oc1nc(S)nc2c1C(c1ccc(Cl)cc1)c1c(O)nc(S)nc1O2")
6.05
>>> recorded_measurement("Oc1nc(O)c2c(n1)Oc1nc(O)nc(O)c1C2c1ccc(Br)cc1")
3.68
>>> recorded_measurement("Clc1nc(Cl)c2c(n1)Oc1nc(Cl)nc(Cl)c1C2c1ccccc1")
4.13

Next compound, pIC50 to be filled in.
// query Query (compound): `Oc1nc(O)c2c(n1)Oc1nc(O)nc(O)c1C2c1ccc(Cl)cc1` ; field requested: pIC50
// result 3.84
